- targetEntity: 5-HT2B receptors (Homo sapiens)
- Sequence (P41595 whole entry): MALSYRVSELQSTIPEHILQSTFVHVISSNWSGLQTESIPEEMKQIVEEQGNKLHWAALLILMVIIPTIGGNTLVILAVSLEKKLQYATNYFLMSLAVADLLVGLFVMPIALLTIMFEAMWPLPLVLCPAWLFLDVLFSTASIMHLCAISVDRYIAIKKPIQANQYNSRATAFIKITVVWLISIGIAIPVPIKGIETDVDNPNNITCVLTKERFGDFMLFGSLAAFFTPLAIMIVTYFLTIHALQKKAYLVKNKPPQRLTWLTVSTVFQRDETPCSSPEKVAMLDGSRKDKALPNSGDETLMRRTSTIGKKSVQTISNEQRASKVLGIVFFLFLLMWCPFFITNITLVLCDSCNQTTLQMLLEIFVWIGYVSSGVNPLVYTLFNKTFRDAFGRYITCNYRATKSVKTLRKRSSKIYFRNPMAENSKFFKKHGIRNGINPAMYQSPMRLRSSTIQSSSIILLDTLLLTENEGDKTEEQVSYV
- testMethodNotes: PI hydrolysis assay on 5-HT2B receptors
readoutLabel: EC50 (nM)
The reply should contain only the number, in nM.

Input line: GET /values?readout=EC50&item= CCCN1CCC[C@@H](c2cccc(S(C)(=O)=O)c2)C1 [(−)-OSU6162]
Output line: 631

====

- targetEntity: UniProt P28222
- Sequence (P28222 whole entry): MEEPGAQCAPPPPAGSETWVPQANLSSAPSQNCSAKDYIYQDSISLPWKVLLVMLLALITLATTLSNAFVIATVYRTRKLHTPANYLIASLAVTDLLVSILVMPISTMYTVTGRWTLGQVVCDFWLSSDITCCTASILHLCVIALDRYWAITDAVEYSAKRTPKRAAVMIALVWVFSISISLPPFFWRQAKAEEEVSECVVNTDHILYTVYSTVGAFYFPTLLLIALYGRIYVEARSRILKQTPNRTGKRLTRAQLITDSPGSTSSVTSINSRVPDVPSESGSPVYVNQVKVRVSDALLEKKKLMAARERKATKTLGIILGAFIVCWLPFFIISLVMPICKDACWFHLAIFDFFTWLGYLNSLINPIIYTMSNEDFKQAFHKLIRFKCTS
- testMethodNotes: R-SAT assay 5-HT1B
- Format: cell-based
readoutLabel: pEC50
Please note pEC50 is a logarithmic value: minus log10 of concentration in mol/L. Answer with that number alone.

Input line: GET /values?readout=pEC50&item= NCCc1c[nH]c2ccc(C(N)=O)cc12 [5-CT, 5-carboxamidotryptamine, reference compound]
Output line: 8.20

Values were extracted from patent US20130197032A1.
